So I've got pKi readings for Histamine H3 receptor (Cavia porcellus, UniProt Q9JI35), take a look.
Remember, pKi is on a log scale: it is -log10 of the molar concentration.

Sample records with pKi:
S=C(NC1CCCCC1)N1CCC(c2cnc[nH]2)CC1 [THIOPERAMIDE] yielded pKi of 8.14

// pKi lookup, molecule = `N=C(CCc1ccc(Cc2cnc[nH]2)cc1)NCc1ccc(Cl)cc1` , result: 6.76

According to the records, this molecule `COc1ccc(C/N=C(\N)c2ccc(Cc3c[nH]cn3)cc2)cc1` displays pKi of 6.29

// pKi lookup, molecule = `N=C(N)c1ccc(CCc2cnc[nH]2)cc1` , result: 6.78

Kindly review the next molecule as well.
So for `N=C(NCc1ccc(Cl)cc1)c1ccc(Cc2c[nH]cn2)cc1` , the logged pKi turned out to be 7.80
